Parameter: TGI. Scope: all listed entries.
test system: LOX IMVI melanoma; assay: NCI tumour cell line growth inhibition, 48 h
measured-parameter: TGI (µM)

compound=Nc1cc(N)c(N=Nc2cccc3c(S(=O)(=O)O)cccc23)cc1N=Nc1cc([N+](=O)[O-])ccc1O measured_parameter=TGI censor_symbol== reported_value=37.1
compound="O=C(O)C1CC2CC(=O)C1C2 (centres undefined)" measured_parameter=TGI censor_symbol=> reported_value=100
compound=Cc1cc(-c2ccc(C(=O)C(c3ccccc3)(c3ccccc3)c3ccccc3)[nH]2)on1 measured_parameter=TGI censor_symbol== reported_value=53.3
compound=CC(C)(C)N=c1n(C(C)(C)C)oc(=O)n1-c1ccccc1 measured_parameter=TGI censor_symbol=> reported_value=50
compound=Nc1nc(NCCOCP(=O)(O)O)c(N)c(=O)[nH]1 measured_parameter=TGI censor_symbol=> reported_value=100
compound="CC(=O)NC1C(OCc2ccccc2)OC(CO)C(O)C1OCC(=O)N1CCCC1C(=O)NC(CCC(=O)NCCCCCNc1c2ccccc2nc2cccc([N+](=O)[O-])c12)C(N)=O (centres undefined)" measured_parameter=TGI censor_symbol== reported_value=0.733
compound="CC/C=C/C(/C=C/C[C@]1(CC)C[C@H](CC)[C@H](CC(=O)O)OO1)CC (some centres undefined)" measured_parameter=TGI censor_symbol== reported_value=1.76
compound=O=C(CN1C(=O)S/C(=C\C(Cl)=C\c2ccccc2)C1=O)NCCCn1ccnc1 measured_parameter=TGI censor_symbol== reported_value=2.75
compound=NNC(=S)N/N=C(/C(=O)Nc1ccc([N+](=O)[O-])cc1)c1nc2ccc([N+](=O)[O-])cc2[nH]c1=O measured_parameter=TGI censor_symbol=> reported_value=100
compound=C=CC[C@H]1[C@H](O[Si](C)(C)C(C)(C)C)C=CC(=O)[C@@H]1CC(=O)OCC measured_parameter=TGI censor_symbol== reported_value=32
compound=NCCCCCNOCCCN measured_parameter=TGI censor_symbol=> reported_value=100
compound=COc1cc(-c2oc3c(OC)c(O)cc(O)c3c(=O)c2OC)ccc1O measured_parameter=TGI censor_symbol=> reported_value=55.8
compound=CN(C)CC1=Nc2cccc3cccc(c23)N1 measured_parameter=TGI censor_symbol== reported_value=37.3
compound=COc1cc2nncc(SCc3ccc(Cl)c(Cl)c3)c2cc1OC measured_parameter=TGI censor_symbol=> reported_value=100
compound=COc1cc2c(cc1OCCCCCn1c3ccccc3c3ccccc31)N=C[C@@H]1CCCN1C2=O measured_parameter=TGI censor_symbol== reported_value=4.88
compound=COc1cc(NC(=O)c2cc(O)c(C/C=C(\C)CCC=C(C)C)c(O)c2)cc2c1O[C@]1(C)CC[C@@H](O)C(C)(C)[C@H]1C2 measured_parameter=TGI censor_symbol== reported_value=2.89
compound="O=C(NN1C(=O)CSC12CCC(c1ccccc1)CC2)c1[nH]c2ccc(F)cc2c1-c1ccccc1 (centres undefined)" measured_parameter=TGI censor_symbol== reported_value=30.8
compound="CC1=NN(c2ccccc2)C(=O)C1N=Nc1ccc(S(N)(=O)=O)cc1 (centres undefined)" measured_parameter=TGI censor_symbol=> reported_value=100
compound=c1cc(C[S+]2CCCC2)oc1C[S+]1CCCC1 measured_parameter=TGI censor_symbol=> reported_value=100
compound=CC1=NN(C(=O)c2nn(-c3ccc(Cl)cc3)cc2O)C(=O)C1 measured_parameter=TGI censor_symbol=> reported_value=100
compound=CC(=O)n1c(-c2ccc(Cl)c(Cl)c2)cn(-c2ccc(Cl)cc2)c1=O measured_parameter=TGI censor_symbol=> reported_value=100
compound=COc1ccccc1Cn1[nH]c(=O)c2cc([N+](=O)[O-])ccc21 measured_parameter=TGI censor_symbol=> reported_value=100
compound="CC(C)=CCc1cc(C2COc3cc4c(c(O)c3C2=O)C=CC(C)(C)O4)c(O)cc1O (centres undefined)" measured_parameter=TGI censor_symbol== reported_value=43.4
compound=COC(=O)c1nc(N)nc(C(=O)OC)c1C(=O)c1ccccc1 measured_parameter=TGI censor_symbol=> reported_value=100
compound=CCc1n[nH]c(=S)n1/N=C\c1ccc(-c2ccccc2[N+](=O)[O-])o1 measured_parameter=TGI censor_symbol=> reported_value=100
compound=NS(=O)(=O)c1ccc(NC(=O)c2cccc3c(Nc4ccc(S(N)(=O)=O)cc4)c4ccccc4nc23)cc1 measured_parameter=TGI censor_symbol=> reported_value=100
compound=Cn1c2ccccc2c2[nH]c3ccccc3c(=O)c21 measured_parameter=TGI censor_symbol=> reported_value=100
compound=COc1ccc(/C(C#N)=C(/N)SCc2ccccc2Cl)cc1 measured_parameter=TGI censor_symbol== reported_value=29
compound="COC(=O)CNCC1OC2OC(C)(C)OC2C1N=[N+]=[N-] (centres undefined)" measured_parameter=TGI censor_symbol=> reported_value=100
